Protocol details: Example 6: Pharmacokinetic characterisation after s.c. administration
Type: in vivo, rat (Sprague Dawley or Wistar)
Measurement parameters: rat, 70 nmol/kg, plasma terminal elimination half-life
Protocol: Sprague Dawley or Wistar rats (males with a body weight of approximately 250-350 g) were given a single subcutaneous (s.c.) injection of each peptide to be tested. Following s.c. administration of the selected peptides (dose 70 nmol/kg, dosing volume either 2 or 5 mL/kg), blood samples were drawn at 15 min, 30 min, 45 min, 60 min, 90 min, 2 h, 3 h, 4 h post-dose. […] Plasma samples were analyzed after solid phase extraction (SPE) by liquid chromatography mass spectrometry (LC-MS/MS). […]
Decide using T1/2 alone. Strictly below 50 min: condition met. Equal to or above 50 min: condition not met.

Record excerpt, results attached:
H-NMDMRC(1)SASVEC(2)KQKC(3)LAAIGSIFGKC(1)MNKKC(2)KC(3)YPR-NH2 [Peptide 53]
condition not met
H-NID[Nle]RC(1)SASVEC(2)KQKC(3)LKAIGSIFGKC(1)[Nle]NKKC(2)KC(3)YPR-OH [Peptide 98]
condition not met
H-NMDMRC(1)SASVEC(2)KQKC(3)LKAIGSIFGKC(1)MNKKC(2)KC(3)YPR-OH [Peptide 3]
condition not met

In the following, a different substance is considered.
Is the reported T1/2 for H-NIDMRC(1)SASVEC(2)KQKC(3)LKAIGSIFGKC(1)MNKKC(2)KC(3)YPR-OH [Peptide 9] strictly below 50 min?
condition met

###

Items are presented alongside their recorded pIC50.
System: Kv1.2 (Homo sapiens, UniProt P16389)
Construct: expressed in transfected cells
Sequence (P16389 whole entry): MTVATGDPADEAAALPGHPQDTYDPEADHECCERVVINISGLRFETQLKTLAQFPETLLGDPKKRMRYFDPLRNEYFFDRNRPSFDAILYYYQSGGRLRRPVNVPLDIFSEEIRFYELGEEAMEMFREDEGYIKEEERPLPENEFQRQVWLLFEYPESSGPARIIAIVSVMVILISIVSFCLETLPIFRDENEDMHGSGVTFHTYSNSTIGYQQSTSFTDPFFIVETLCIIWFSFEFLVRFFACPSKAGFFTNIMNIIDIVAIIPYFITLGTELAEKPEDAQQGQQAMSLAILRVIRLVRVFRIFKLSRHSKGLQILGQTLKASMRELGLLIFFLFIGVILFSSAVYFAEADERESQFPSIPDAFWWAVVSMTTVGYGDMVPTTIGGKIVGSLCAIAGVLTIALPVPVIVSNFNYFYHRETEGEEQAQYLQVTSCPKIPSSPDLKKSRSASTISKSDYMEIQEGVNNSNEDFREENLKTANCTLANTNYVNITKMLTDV
Protocol details: Patch clamp assay (QPatch), Kv1.2
Format: cell-based
Measurement parameters: QPatch; CHO cells stably expressing human Kv1.2; read-out: Potency IC50, Kv1.2
// scale note: pIC50 = -log10(conc_M); give the bare number

H-S[Nle]D[Nle]RC(1)SASVEC(2)KQKC(3)LKAIGSIFGKC(1)MNKKC(2)KC(3)[F(4-NH2)]PR-NH2 [Peptide 72]
6.37
Ac-SKC(1)SASVEC(2)KQKC(3)LKAIGSIFGKC(1)[Nle]NKKC(2)KC(3)YPR-NH2 [Peptide 113]
6.71

Query substance follows.
Name the recorded pIC50 of H-N[Nle]D[Nle]RC(1)SASVEC(2)KKKC(3)LKAIGSIFGKC(1)[Nle]NKKC(2)KC(3)YPR-NH2 [Peptide 46] , assay system Kv1.2 (Homo sapiens, UniProt P16389).
6.59

###

System: Kv1.2 (Homo sapiens)
Construct: expressed in transfected cells
Protocol details: Patch clamp assay (QPatch), Kv1.2
Format: cell-based
Measurement parameters: QPatch; CHO cells stably expressing human Kv1.2; read-out: Potency IC50, Kv1.2
Could you mark each record met if its IC50 falls strictly under 200 nM, and not met if it equals or exceeds it?

H-MDMRC(1)SASVEC(2)KQKC(3)LKAIGSIFGKC(1)MNKKC(2)KC(3)YPR-OH [Peptide 6]
not met
H-NMDMRC(1)SASVEC(2)KQKC(3)LAAIGSIFGKC(1)MNKKC(2)KC(3)YPR-NH2 [Peptide 53]
met
H-NMDMRC(1)SASVEC(2)KQKC(3)LKAIGSIFGKC(1)MNKKC(2)KC(3)YPR-OH [Peptide 3]
not met
H-S[Nle]D[Nle]RC(1)SASVEC(2)AQSC(3)LKAIGSIFGKC(1)MNKKC(2)KC(3)YPR-NH2 [Peptide 81]
not met
H-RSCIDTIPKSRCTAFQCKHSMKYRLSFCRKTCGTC-OH [ShK, reference compound]
met
H-P[Nle]E[Nle]RC(1)SASVEC(2)KQKC(3)LAAIGSIFGKC(1)[Nle]NKKC(2)KC(3)YPR-NH2 [Peptide 101]
not met
Ac-LRC(1)SASVEC(2)KQKC(3)LKAIGSIFGKC(1)[Nle]NKKC(2)KC(3)YPR-NH2 [Peptide 114]
met
H-QMDMRC(1)SASVEC(2)KQKC(3)LKAIGSIFGKC(1)MNKKC(2)KC(3)YPR-OH [Peptide 1]
not met
H-NMDMRC(1)SASVEC(2)KQKC(3)LDAIGSIFGKC(1)MNKKC(2)KC(3)YPR-NH2 [Peptide 21]
met
H-NMDMRC(1)SASVEC(2)KQKC(3)LKAIGSKFGKC(1)MNKKC(2)KC(3)YPR-NH2 [Peptide 35]
met

Is IC50 strictly under 200 nM for the entry H-P[Nle]E[Nle]RC(1)[2-Amino-3-guanidinopropionyl]ASVEC(2)KQKC(3)LAAIGSIFGKC(1)[Nle]NKKC(2)KC(3)YPR-OH [Peptide 91] ?
not met

Is it true that IC50 reported for H-NMDMRC(1)SASVEC(2)AQKC(3)LKAIGSIFGKC(1)MNKKC(2)KC(3)YPR-NH2 [Peptide 31] is less than 200 nM?
not met

Consider the substance H-NMDMRC(1)SASVEC(2)KQLC(3)LKAIGSIFGKC(1)MNKKC(2)KC(3)YPR-NH2 [Peptide 19] . Is its IC50 strictly less than 200 nM?
not met

Determine whether this substance shows IC50 lower than 200 nM (ties excluded): H-RC(1)SASVEC(2)KQKC(3)LKAIGSIFGKC(1)[Nle]NKKC(2)KC(3)YPR-NH2 [Peptide 111]
not met

Does the reported IC50 of H-NMDMRC(1)SASVEC(2)KQKC(3)LKAIESIFGKC(1)MNKKC(2)KC(3)YPR-NH2 [Peptide 23] stay below 200 nM?
met

###

The reader will find reported IC50 values listed item by item below.
System: Kv1.1 (Homo sapiens, UniProt Q09470)
Construct: expressed in transfected cells
Sequence (Q09470 whole entry): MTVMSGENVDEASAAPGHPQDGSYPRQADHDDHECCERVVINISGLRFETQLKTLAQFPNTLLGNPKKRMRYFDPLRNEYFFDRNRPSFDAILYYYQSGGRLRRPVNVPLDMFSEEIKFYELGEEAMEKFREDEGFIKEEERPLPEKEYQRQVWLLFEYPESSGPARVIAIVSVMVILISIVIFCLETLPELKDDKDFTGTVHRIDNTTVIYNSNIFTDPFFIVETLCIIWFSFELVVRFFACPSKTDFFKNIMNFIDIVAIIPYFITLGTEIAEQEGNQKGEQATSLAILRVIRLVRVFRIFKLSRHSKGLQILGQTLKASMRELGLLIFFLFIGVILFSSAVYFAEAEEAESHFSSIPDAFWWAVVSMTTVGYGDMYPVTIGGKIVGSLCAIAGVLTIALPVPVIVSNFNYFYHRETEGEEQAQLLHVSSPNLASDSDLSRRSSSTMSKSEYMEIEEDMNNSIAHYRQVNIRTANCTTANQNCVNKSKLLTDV
Protocol details: Patch clamp assay (QPatch), Kv1.1
Assay type: cell-based
Measurement parameters: QPatch; CHO cells stably expressing human Kv1.1; read-out: Potency IC50, Kv1.1

Sample records with IC50:
H-P[Nle]E[Nle]RC(1)[2,4-Diaminobutanoyl]ASVEC(2)KQKC(3)LAAIGSIFGKC(1)[Nle]NKKC(2)KC(3)YPR-OH [Peptide 84]
> 3 µM
H-NMDMRC(1)SASVEC(2)KQKC(3)LKAIGSRFGKC(1)MNKKC(2)KC(3)YPR-NH2 [Peptide 36]
> 3 µM
H-NMDMRC(1)SASVEC(2)KQLC(3)LKAIGSIFGKC(1)MNKKC(2)KC(3)YPR-NH2 [Peptide 19]
> 3 µM

Look up and state reported IC50 for H-NMDMRC(1)SASVEC(2)KQKC(3)LAIGSIFGKC(1)MNKKC(2)KC(3)YPR-NH2 [Peptide 55]
> 3 µM

Please indicate IC50 recorded for H-NMDMRC(1)SASVEC(2)KEKC(3)LKAIGSIFGKC(1)MNKKC(2)KC(3)YPR-NH2 [Peptide 32]
> 3 µM

Recall and state the measured IC50 for H-NMDMRC(1)SASVEC(2)KQKC(3)LKAIESIFGKC(1)MNKKC(2)KC(3)YPR-NH2 [Peptide 23] .
> 3 µM

Input H-NIDMRC(1)SASVEC(2)KQKC(3)LKAIGSIFGKC(1)MNKKC(2)KC(3)YPR-OH [Peptide 9] , output reported IC50.
> 3 µM

For the substance H-NMDMRC(1)SASVEC(2)KQKC(3)LKAIGSIFGKC(1)MNGKC(2)KC(3)YPR-NH2 [Peptide 37] , report IC50.
> 3 µM

Given the substance H-P[Nle]E[Nle]RC(1)SASVEC(2)KQKC(3)LAAIGSIFGKC(1)[Nle]NKKC(2)KC(3)YPR-OH [Peptide 100] , write its reported IC50.
> 3 µM

# return recorded IC50 for entry H-N[Nle]D[Nle]RC(1)SASVEC(2)KQKC(3)LKAIGSPFGKC(1)[Nle]NKKC(2)KC(3)YPR-NH2 [Peptide 63]
> 3 µM

Quote IC50 reported for H-NMDMRC(1)SASVEC(2)KQKC(3)LDAIGSIFGKC(1)MNKKC(2)KC(3)YPR-NH2 [Peptide 21] please.
> 3 µM

Hello, please tell me recorded IC50 for this one: H-NMDMRC(1)SASVEC(2)KQKC(3)LKAIGSIFGKC(1)MNKKC(2)KC(3)YPRRRTA-NH2 [Peptide 24]
0.626 µM

###

The reader will find reported IC50 values listed item by item below.
System: Kv1.6 (Homo sapiens, UniProt P17658)
Construct: expressed in transfected cells
Sequence (P17658 whole entry): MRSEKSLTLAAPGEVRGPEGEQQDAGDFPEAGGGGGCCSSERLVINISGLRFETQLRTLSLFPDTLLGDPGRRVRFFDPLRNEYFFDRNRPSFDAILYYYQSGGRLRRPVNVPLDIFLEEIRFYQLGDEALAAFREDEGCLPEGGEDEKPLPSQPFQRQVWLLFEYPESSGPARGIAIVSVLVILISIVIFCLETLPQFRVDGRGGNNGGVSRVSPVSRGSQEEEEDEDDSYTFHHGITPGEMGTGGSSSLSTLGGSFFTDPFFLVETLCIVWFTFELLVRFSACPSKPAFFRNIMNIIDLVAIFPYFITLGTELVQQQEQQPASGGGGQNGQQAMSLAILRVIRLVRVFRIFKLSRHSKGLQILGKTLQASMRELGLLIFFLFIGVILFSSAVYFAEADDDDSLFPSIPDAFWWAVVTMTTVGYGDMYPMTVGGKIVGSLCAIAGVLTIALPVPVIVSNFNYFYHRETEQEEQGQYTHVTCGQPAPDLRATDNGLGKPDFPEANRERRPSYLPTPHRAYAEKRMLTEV
Protocol details: Patch clamp assay (QPatch), Kv1.6
Assay type: cell-based
Measurement parameters: QPatch; CHO cells stably expressing human Kv1.6; read-out: Potency IC50, Kv1.6
Write the value in nM as a bare number.

H-N[Nle]S[Nle]RC(1)SASVEC(2)KQKC(3)LKAIGSIFGKC(1)[Nle]NKKC(2)KC(3)YPR-NH2 [Peptide 47]
1400

Give the measured IC50 for H-NMDMRC(1)KASVEC(2)KQKC(3)LKAIGSIFGKC(1)MNKKC(2)KC(3)YPR-NH2 [Peptide 26]
363

Quote IC50 reported for H-P[Nle]D[Nle]RC(1)SASVEC(2)KQKC(3)LKAIGC(4)IFGKC(1)[Nle]NKKC(2)KC(3)YPC(4)-NH2 [Peptide 85] please.
1220
